B1: TRIM63 (parent)
chain: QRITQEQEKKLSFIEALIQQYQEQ

- Variants of: B1
- measurementDescription: protein stability index of a GFP-peptide fusion (GPS, HEK-293T) (PSI 1-6); higher = more stable;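 note: lentivirally expressed fusions sorted by FACS into six bins by GFP to DsRed ratio, PSI derived from sequencing read proportions per bin multiplied by bin number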
- testSettings: c terminus: a fixed tail appended
Answer each item with its documented protein stability index.
One number for each entry.

Consider the worked cases shown below.
* Q1H | 2.84
* I3F | 2.61
* L11W | 2.26
* I14D | 4.69
* Q7S | 2.86

List reported protein stability index for each of these variants:
1. E8N
2. E6P

Result:
[1.97, 1.97]
